Values from patent US20100196390A1

Reported T1/2 values for the following binders.
Target: TrkB (Homo sapiens (Human), UniProt Q16620 32-430)
Sequence (Q16620 32-430 limits assumed): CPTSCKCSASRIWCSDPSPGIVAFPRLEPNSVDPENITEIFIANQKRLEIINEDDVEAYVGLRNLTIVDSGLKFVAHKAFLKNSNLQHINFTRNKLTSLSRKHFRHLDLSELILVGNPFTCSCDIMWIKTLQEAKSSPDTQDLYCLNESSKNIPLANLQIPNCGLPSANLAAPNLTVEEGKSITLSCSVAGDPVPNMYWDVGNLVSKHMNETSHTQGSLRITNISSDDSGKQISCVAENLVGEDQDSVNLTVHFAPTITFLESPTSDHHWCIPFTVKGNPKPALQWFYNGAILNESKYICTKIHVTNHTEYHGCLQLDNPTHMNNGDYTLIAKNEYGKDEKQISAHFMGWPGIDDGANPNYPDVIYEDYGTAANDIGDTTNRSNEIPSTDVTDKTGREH
Assay: koff of Fab at 25 C; T1/2=Log2/koff
Express the result in min but write the number alone.

Example results:
Prompt line: Look up T1/2: 2-F6 (Fab, V domains shown, Fab) VH: QVQLVQSGAEVKKPGASVKVSCKASGYTFTNYVILWVRQAPGQGLEWMGYINPYNDGTKYNEKFKGRVTMTRDTSTSTVYMELSSLRSEDTAVYYCARLLKYRRFRYYAIDYWGQGTTVTVSS VL: DIQMTQSPSSLSASVGDRVTITCRASENVYSNLAWYQQKPGKAPKLLIYAASNLQSGVPSRFSGSGSGTDFTFTISSLQPEDIATYYCQHFWYSPFTFGQGTKLEIK
Response line: 0.23

Prompt line: Given the binder 16-B7 (Fab, V domains shown, Fab) VH: QVQLVQSGAEVKKPGASVKVSCKASGYTFTNYDIIWVRQAPGQGLEWMGYINPYNDGTKYNEKFKGRVTMTRDTSTSTVYMELSSLRSEDTAVYYCARLLKYRRFRYYAIDYWGQGTTVTVSS VL: DIQMTQSPSSLSASVGDRVTITCRASENVYSNLAWYQQKPGKAPKLLIYAASNLADGVPSRFSGSGSGTDFTFTISSLQPEDIATYYCQHFWASPFTFGQGTKLEIK , what is its reported T1/2?
Response line: 5

Prompt line: Using the record for 10-F7 (Fab, V domains shown, Fab) VH: QVQLVQSGAEVKKPGASVKVSCKASGYTFTNYDIIWVRQAPGQGLEWMGYINPYNGRREYNEKFKGRVTMTRDTSTSTVYMELSSLRSEDTAVYYCARLLKYRRFRYYAIDYWGQGTTVTVSS VL: DIQMTQSPSSLSASVGDRVTITCRASENVYSHLAWYQQKPGKAPKLLIYAASNLQSGVPSRFSGSGSGTDFTFTISSLQPEDIATYYCQHFVYSPFTFGQGTKLEIK , report its T1/2.
Response line: 4.9

Prompt line: Item under review: 13-D5 (Fab, V domains shown, Fab) VH: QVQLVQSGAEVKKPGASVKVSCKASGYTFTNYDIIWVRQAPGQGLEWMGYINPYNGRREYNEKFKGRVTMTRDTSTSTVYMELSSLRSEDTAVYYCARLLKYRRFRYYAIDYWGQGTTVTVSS VL: DIQMTQSPSSLSASVGDRVTITCRASENVTSNLAWYQQKPGKAPKLLIYAASNLQSGVPSRFSGSGSGTDYTFTISSLQPEDIATYYCQHFWGSPFTFGQGTKLEIK . Reported T1/2?
Response line: 13

Further cases:
Prompt line: Name the reported T1/2 value associated with the binder C2 (Fab, V domains shown, Fab) VH: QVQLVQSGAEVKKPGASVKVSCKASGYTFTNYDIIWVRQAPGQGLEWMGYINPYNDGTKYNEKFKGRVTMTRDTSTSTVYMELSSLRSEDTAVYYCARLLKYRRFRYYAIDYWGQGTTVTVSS VL: DIQMTQSPSSLSASVGDRVTITCRTSENVYSNLAWYQQKPGKAPKLLIYAASNLQSGVPSRFSGSGSGTDYTFTISSLQPEDIATYYCQHFWGSPFTFGQGTKLEIK
Response line: 2.9
